assay: mn = molality of the nth substance listed, in mol/kg; conditions: 303.15 K; 100 kPa; Liquid; Vibrating tube method; m1 = 0.4
quantity.measured: mass density (kg/m3)
// units = kg/m3; emit number, no label

Qu. Entry N=C(N)NCCC[C@H](N)C(=O)O [L-arginine] + O has what mass density?
Ans. 1014.33

Qu. Now this one: NCC(=O)O [2-aminoacetic acid] + O
Ans. 1007.98

Qu. What do you get for OC[C@@H](O)[C@@H](O[C@H]1O[C@H](CO)[C@@H](O)[C@H](O)[C@H]1O)[C@H](O)[C@@H](O)CO [4-O-α-D-glucopyranosyl-D-glucitol] + O ?
Ans. 1042.41

Qu. Same question for C[C@@H](O)[C@H](N)C(=O)O [L-threonine] + O please.
Ans. 1011.83

Qu. Then CC(C)[C@H](N)C(=O)O [L-valine] + O ?
Ans. 1005.9
